Target: T1, Siglec15-ECD-His (human, UniProt Q6ZMC9 20-263)
T1 construct: Human Siglec15 (Uniprot Q6ZMC9) extracellular domain with 7 His, expressed in Hek293F; also called Sigle15-ECD-His protein; Siglec15-His protein
T1 sequence: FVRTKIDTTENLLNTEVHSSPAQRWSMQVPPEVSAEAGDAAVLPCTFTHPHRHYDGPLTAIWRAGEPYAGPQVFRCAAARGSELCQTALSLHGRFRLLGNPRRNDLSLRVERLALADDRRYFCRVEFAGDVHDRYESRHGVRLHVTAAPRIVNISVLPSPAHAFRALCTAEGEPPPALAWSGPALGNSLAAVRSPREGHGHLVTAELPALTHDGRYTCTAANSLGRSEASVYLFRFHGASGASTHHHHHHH
Assay: BLI (ForteBio), Siglec15-ECD-His on HIS1K sensor, antibody as analyte
value.kind: kon (M⁻¹ s⁻¹)
Kindly answer with a numeric value in M⁻¹ s⁻¹, unit omitted.

binder	kon [M⁻¹ s⁻¹]
1-15D1-IgG1 human-mouse chimeric anti-Siglec15 antibody (antibody, V domains shown) VH: EVQLQQSGPELVKPGASVKMSCKASGYTFTTYVMHWVKQKPGQGLEWIGYINPYNDNTKYNEKFKGKATLTSDKSSSTAYMELSSLTSEDSAVYYCGSGYDAMDYWGQGTSVTVSS VL: DIQMAQSPASLSVSVGETVTITCRTSENIYSHLAWYQQKQGKSPQLLVYSATNLADGVPSRFNGSGSGTQYSLKINSLQSEDFGSYYCQHFWGTPWTFGGGTKLEIK	436000

Q: Provide kon value for the following binder: 1-10E5-IgG1 human-mouse chimeric anti-Siglec15 antibody (antibody, V domains shown) VH: DVKLVESGGGLVKPGGSLKLSCVVSGLTFSRYTMSWVRQTPEKRLEWVATISSGGNSTYYPDSVKGRFTISRDDAKDTLYLQMSSLKSEDTAMYYCTNYGYFFDYWGQGTTLTVSS VL: DIQMTQSPASLSASVGETVTITCRASENIYSFLAWYQQKQGKSPQLLVYNAKTLAEGVPSRFSGSGSGTQFSLKINSLQPEDFGSYYCQHHYDRPLTFGAGTKLELK
A: 1.04e+06

Q: Provide kon value for the following binder: 1-7F4-IgG1 human-mouse chimeric anti-Siglec15 antibody (antibody, V domains shown) VH: EVQLQQSGPELVKPGASVKMSCKASGYTFTTYVMHWVKQKPGQGLEWIGYINPYNDKTKYNEKFKGKATLTSDKSSSTAYMEVSRLTSEDSAVYYCGSGYDAMDYWGQGTSVTVSS VL: DIQMTQSPASLSVSVGETVTITCRASENIYSHLAWYQQKQGKSPQLLIYSATNLADGVPSRFNGSGSGTQYSLKINSLQSEDFGSYYCQHFWGTPWTFGGGTKLEIK
A: 570000
